Task for the reader: assign each of the following sequences its reported Avg % Insert.
- System: TTR
- protocol-summary: TTR editing in primary human hepatocytes transfected with Spy Cas9 mRNA and dgRNAs (Table 9)
- Format: cell-based
- conditions-used: dgRNA co-transfected with Spy Cas9 mRNA (SEQ ID NO:2)
Answers are plain numbers, in %.

Consider the reported Avg % Insert for these sequences:
seq	Avg % Insert [%]
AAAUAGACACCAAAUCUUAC (tested as dual guide RNA, chemistry not given here) [CR003366]	20.47
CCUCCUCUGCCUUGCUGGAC (tested as dual guide RNA, chemistry not given here) [CR003336]	16.20
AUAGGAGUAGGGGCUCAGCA (tested as dual guide RNA, chemistry not given here) [CR003383]	2.07
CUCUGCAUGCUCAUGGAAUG (tested as dual guide RNA, chemistry not given here) [CR003369]	0.90

# map each sequence to its Avg % Insert
1. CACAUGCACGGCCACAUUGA (tested as dual guide RNA, chemistry not given here) [CR003350]
2. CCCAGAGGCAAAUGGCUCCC (tested as dual guide RNA, chemistry not given here) [CR003355]

Output:
16.33
10.47

Input: Please report the measured Avg % Insert for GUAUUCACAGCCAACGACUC (tested as dual guide RNA, chemistry not given here) [CR003373]
Output: 1.00
